All values here come from ChEMBL document CHEMBL1201862.

Each entry below lists one item and its recorded GI50 value.
Tested on: SW-620
run.description: NCI tumour cell line growth inhibition, 48 h
Calls of active or inactive are those of the source. Cut-off read from the data, not from the text of the source: active = GI50 up to about 1.1 µM and inactive = higher.

# compound, target.or.system, GI50
data = [
    ("CCOC(=O)/C=C(/C(=O)OCC)n1cnc2c(=O)[nH]c(NC(C)=O)nc21", "SW-620", "> 100 µM (inactive)"),
    ("COC(=O)C1=NC(=S)NC(c2ccccc2)C1c1nc2ccccc2s1 (configuration not stated)", "SW-620", "> 100 µM (inactive)"),
    ("COc1ccc(/C=C2\\CCC(Cc3ccccc3)(CN(C)C)C2=O)cc1 (configuration not stated)", "SW-620", "26.7 µM (inactive)"),
    ("CC(=O)OC1CC2C(C)(C)C(=O)C=C[C@]2(C)C2CCC3(C)C(c4ccoc4)[C@@H](O)[C@H]4O[C@]43[C@]12C (some centres not stated)", "SW-620", "18.9 µM (inactive)"),
    ("COc1nc(C#CCC(C)O)nc(OC)n1 (configuration not stated)", "SW-620", "23.1 µM (inactive)"),
    ("Cc1nc(Nc2nc3ccccc3[nH]2)nc(Cl)c1CCCl", "SW-620", "> 100 µM (inactive)"),
    ("CCOC(=O)c1nc2ccc(C(F)(F)F)cc2nc1NCc1cc(OC)c(OC)c(OC)c1", "SW-620", "54.1 µM (inactive)"),
    ("COC(=O)C(CCC1C=CN(S(=O)(=O)c2ccc(C)cc2)C1)/N=C/c1ccccc1 (configuration not stated)", "SW-620", "41.1 µM (inactive)"),
    ("CC1=C2[C@@H](c3ccccc3)C3C=CC2(c2ccccc23)N(C(=O)Nc2cccc3ccccc23)C1=O (some centres not stated)", "SW-620", "> 100 µM (inactive)"),
    ("COC(=O)CC1(O)C=CC(=O)C=C1", "SW-620", "4.76 µM (inactive)"),
    ("COC(=O)[C@@H]1N2C(=S)N(c3ccccc3)C(=O)[C@H]2SC1(C)C", "SW-620", "> 100 µM (inactive)"),
    ("CC1(C)C2CCC1C(=O)C(C=O)C2 (configuration not stated)", "SW-620", "> 100 µM (inactive)"),
    ("COc1cc2nc3n(c2cc1OC)C(O)c1c(Cl)nc(SC)nc1S3 (configuration not stated)", "SW-620", "3.33 µM (inactive)"),
    ("CCC/N=C/c1cc(Cc2ccc(O)c(/C=N/CCC)c2)ccc1O", "SW-620", "3.55 µM (inactive)"),
    ("Nc1ccc2nc3n(c2c1)C(=O)c1ccccc1-3", "SW-620", "> 100 µM (inactive)"),
    ("CCOc1ccc(/C(C=O)=C(\\Cl)c2ccc(OC)cc2)cc1", "SW-620", "> 100 µM (inactive)"),
    ("CC(=O)O/N=C1\\C=Cc2c(no[n+]2[O-])C1=O", "SW-620", "3.37 µM (inactive)"),
    ("C[C@@H]1OCC(O)C([C@H]2OC(c3ccccc3)=N[C@H]2CO)O1 (some centres not stated)", "SW-620", "> 100 µM (inactive)"),
    ("CC1OC(O)C(O)C(O)C1O (configuration not stated)", "SW-620", "> 100 µM (inactive)"),
    ("COc1ccc(CN2C(=O)[C@@H]3Cc4c(OC)c(C)c(OC)c(OC)c4[C@H](/C2=C\\c2cc(OC)c(OC)c(C)c2OC)N3C(=O)OC(C)C)cc1", "SW-620", "94.8 µM (inactive)"),
    ("CCN(CC)CC1CCCCN1CC(=O)N1c2ccccc2NC(=O)CC1C (configuration not stated)", "SW-620", "> 100 µM (inactive)"),
    ("O=C(O)CCC(=O)Oc1ccc(O)c2c1CCCC2=O", "SW-620", "> 100 µM (inactive)"),
]
